B1: KIAA1671 peptide 600-615 (Uncharacterized protein KIAA1671), 16-mer library wild type / MDM2 SWIB (MDM2 SWIB/MDM2 domain, residues 17-125) (parent)
chain 1: TPEDDRSFQTVWATVF
chain 2: SQIPASEQETLVRPKPLLLKLLKSVGAQKDTYTMKEVLFYLGQYIMTKRLYDEKQQHIVYCSNDLLGDLFGVPSFSVKEHRKIYTMIYRNLVVVNQQESSDSGTSVSEN

Variants of: B1
ASSAY COMMENT: proteomic peptide phage display deep mutational scan (ProP-PD DMS): M13 P8 16-mer library selected against immobilised GST-tagged bait for four days (rounds), NGS of the eluted pools per day and pseudo-replica
CONDITIONS USED: with MDM2 SWIB (MDM2 SWIB/MDM2 domain, residues 17-125); bait immobilised on MaxiSorp plates (10 µg), library pre-cleared on GST, 2 h binding at 4 °C, five washes; one round per day, days 1-4; value from days 2 and 3; keep out of graded; scale: average fractional NGS count over selection days 2 and 3
Would you mind labelling by screen value? At or over 0.0001 is Fulfilled, under is Not fulfilled.

| MUTATION CODE | QUALITATIVE LABEL |
| --- | --- |
| chain 1 D4A | Fulfilled |
| chain 1 A13Q | Not fulfilled |
| chain 1 D4N | Not fulfilled |
| chain 1 V11F | Fulfilled |
| chain 1 R6T | Not fulfilled |
| chain 1 V11A | Not fulfilled |
| chain 1 T14E | Fulfilled |
| chain 1 A13H | Fulfilled |
| chain 1 Q9G | Fulfilled |
| chain 1 Q9E | Not fulfilled |
| chain 1 V11L | Fulfilled |
| chain 1 D5T | Fulfilled |
| chain 1 E3L | Fulfilled |
| chain 1 T14Q | Not fulfilled |
| chain 1 E3A | Fulfilled |
| chain 1 T10P | Not fulfilled |
| chain 1 R6K | Fulfilled |
| chain 1 V15W | Fulfilled |
| chain 1 D4S | Fulfilled |
| chain 1 V15M | Not fulfilled |
| chain 1 A13I | Fulfilled |
| chain 1 S7N | Not fulfilled |
| chain 1 W12T | Not fulfilled |
| chain 1 T10I | Fulfilled |
| chain 1 D4I | Not fulfilled |
| chain 1 A13T | Fulfilled |
| chain 1 T14A | Not fulfilled |
| chain 1 T10D | Not fulfilled |
| chain 1 F16A | Not fulfilled |
| chain 1 E3V | Fulfilled |
| chain 1 D4P | Fulfilled |
| chain 1 Q9P | Not fulfilled |
| chain 1 F8A | Fulfilled |
| chain 1 F16E | Not fulfilled |
| chain 1 R6G | Not fulfilled |
| chain 1 S7L | Fulfilled |
| chain 1 P2A | Not fulfilled |
| chain 1 D5P | Fulfilled |
| chain 1 F16W | Not fulfilled |
| chain 1 V11M | Fulfilled |
| chain 1 R6W | Fulfilled |
| chain 1 F8P | Not fulfilled |
| chain 1 E3K | Fulfilled |
| chain 1 V11T | Not fulfilled |
| chain 1 F16D | Not fulfilled |
| chain 1 V11Q | Fulfilled |
